test system: NCI-H460 lung; experiment: NCI-60 one-dose screen, 48 h (100 = growth as untreated, 0 = no growth, -100 = all killed); conditions: 10 µM unless noted
The panel holds about 83,000 compounds, 20% with a hit somewhere; the sample as a whole holds those more often.
In this section, each of the compounds is paired with its reported growth.

Compound	growth (%)
Cc1nc2cc(Nc3nc(NCCN)nc(Nc4ccc(F)cc4)n3)ccc2n1Cc1ccccc1	82.6
FC(F)(F)c1ccc2c(c1)n1cnnc1c1nncn21	110
CC(C)(C)CC(C)(C)N(CSc1ccc(Cl)cc1)CSc1ccc(Cl)cc1	42.9
O=[N+]([O-])c1cc2c(cc1Br)-c1ccccc1C2	102
O=C1NC(=S)S/C1=C\c1cccc([N+](=O)[O-])c1	104
O=C1c2cc(S(=O)(=O)O)ccc2C(=O)c2c1cccc2[N+](=O)[O-]	115
CC(=O)Nc1ccc(S(=O)(=O)N/N=C\c2ccc(Cl)c(Cl)c2)cc1	101
Cn1c2ccccc2c2nn(Cc3ccccc3)c(=O)nc21	102
N#Cc1c(O)c2c(c(O)c1C#N)C(=O)c1ccccc1C2=O	22.7
Oc1ccccc1/C=N/Nc1nc2ccccc2s1	15.7
Cn1c2c(cc(S(=O)(=O)c3ccccc3)c1=O)CCc1c-2cnn1-c1cccc(Cl)c1	101
O=c1[nH]c(-c2ccccn2)nc2sc3c(c12)CCCCCC3	15.9
COc1nc2c(cc1S(=O)(=O)c1ccccc1)CCc1c-2cnn1-c1ccccc1	77.5
CCCCC(O)Cn1ncc(C(=O)OCC)c1NC(=O)NCc1ccccc1C(F)(F)F (configuration not stated)	103
COC(=O)C1C2CC3c4[nH]c5cc(OC)ccc5c4CCN3CC2CC(OC2CCCCO2)C1OC (configuration not stated)	107
CCN(C(=O)c1ccc2c3c(cccc13)C=C2)c1ccccc1	111
COc1ccc(/C=N/NC(=O)c2cnn(CC(O)Cc3ccccc3)c2N)cc1OC1CCCC1 (configuration not stated)	98.5
Cc1nc(-c2ccccc2)cc2c(O)c(C(=O)N/N=C/Cc3ccccc3)[nH]c(=O)c12	102
Brc1ccccc1Nc1ccc2nnc(-c3ccncc3)n2n1	104
O=C(N/N=C/c1ccc(F)cc1)c1[nH]c2ccc(I)cc2c1-c1ccccc1	1.78
COc1cc(-c2nc(SC(C)C)nc(Nc3ccccc3C)c2C#N)cc(OC)c1OC	107
COc1ccc(/C=C2\SC(=O)N(CN3CCN(c4cc5c(cc4F)c(=O)c(C(=O)O)cn5C4CC4)CC3)C2=O)cc1	104

----------
system: A549/ATCC NSCLC; test: NCI-60 one-dose screen, 48 h; conditions: 10 µM unless noted
This is part of a sample that, as a whole, favours compounds with a hit. Of some 83,000 tested, about 20% had one in any assay. The source made the active and inactive calls. How the source made its calls: active means growth percent below 10; inactive means the rest.
Outcomes: 1 (yes) = active, 0 (no) = inactive

Compound	Class assignment
NS(=O)(=O)c1ccc(C(=O)N/N=C(\CS(=O)(=O)c2ccccc2)c2cc3cc(Br)ccc3o2)cc1	0 (no)
COc1ccc(Nc2[nH]n(C3=Nc4ccccc4Sc4ccccc43)c(=O)c2C#N)cc1	0 (no)
O=[N+]([O-])c1ccc(C=C2C(Cl)=C(Cl)C(Cl)=C2Cl)cc1	0 (no)
COc1cc(C2=NN(c3ccc(S(N)(=O)=O)cc3)C(c3ccc(Cl)cc3)C2)cc(OC)c1OC (stereo not given)	0 (no)
Cc1nc2cc(Nc3nc(Nc4ccc(F)cc4)nc(N4CCN(C)CC4)n3)ccc2n1Cc1ccccc1	1 (yes)

----------
system: UO-31 renal; test: NCI-60 one-dose screen, 48 h; details: 10 µM unless noted
About 83,000 compounds went through this panel and 20% of them were active in at least one assay; those are over-represented in the sample as a whole. Active and inactive are the calls of the source. Rule for the calls: active = growth percent below 10; inactive = the rest.
Outcomes: active, inactive

Molecule	Class assignment
Cc1nc2cc(Nc3nc(Nc4ccc(F)cc4)nc(-c4cccs4)n3)ccc2n1Cc1ccccc1	inactive
O=C1CN2CCC1C/C2=C\c1ccnc2c(Cl)cccc12 (stereo not given)	inactive
Cc1c(NCC(=O)Nc2nc3ccccc3[nH]2)c(=O)n(-c2ccccc2)n1C	inactive
Cc1nc2cc(Nc3nc(Nc4ccc(F)cc4)nc(N4CCCC4)n3)ccc2n1Cc1ccccc1	active
Nc1ccccc1-c1n[nH]c(=O)[nH]c1=O	inactive
COc1ccc(S(=O)(=O)c2ccc(C(N)=O)cc2)cc1NC(=O)c1[nH]c(C)c2c1CCCCC2=O	inactive
CCCCCCCCCCCCCCCC[N+]1(C)CCOCC1	inactive
COc1ccc(/C=C2\CN(Cc3cn(CCCNc4ccnc5cc(Cl)ccc45)nn3)C/C(=C\c3ccc(OC)cc3)C2=O)cc1	inactive
NC1=NC(c2ccccc2OS(=O)(=O)c2ccc(Br)cc2)n2c(nc3ccccc32)N1 (stereo not given)	inactive
COc1cc2cc(Oc3ccc(NC(=O)Nc4cccc(C(F)(F)F)c4)cc3)c(C)nc2cc1OCCN1CCCCC1	active

----------
Tested on: BT-549 breast
Experiment: NCI-60 one-dose screen, 48 h
Details: 10 µM unless noted
Description: Growth inhibition of the BT-549 human tumor cell line is measured as a screen for anti-cancer activity. Cells are grown in 96 well plates and exposed to the test compound for 48 hours. Compounds are tested at a single concentration, which is 10^-5 M for most compounds. The reported endpoint is percent growth (GI% or GIPRCNT), where numbers from 0 - 100% represent growth inhibition, and numbers from -100% - 0 represent cell death. For example, a value of 40 represents 60% growth inhibition. […]
The panel holds about 83,000 compounds, 20% with a hit somewhere; the sample as a whole holds those more often. Activity calls are given as the source filed them. How the source made its calls: active means growth percent below 10; inactive means the rest.
Outcomes: active, inactive

Molecule	Class assignment
COc1cc2nc(SCc3cc(OC)c(OC)c(OC)c3)n(-c3ccccc3OC)c(=O)c2cc1OC	inactive
O=C(C[Si](CC(=O)c1cccc(C(F)(F)F)c1)CC(=O)c1cccc(C(F)(F)F)c1)c1cccc(C(F)(F)F)c1	inactive
CCN(CC)c1ccc2c(c1)OS(=O)(=O)N=C2	inactive
O=C1/C(=C/c2ccc(Cl)cc2)N=C(c2ccccc2)N1CCc1cccs1	inactive
COc1ccc(/C=N/NC(=O)c2cnn(CC(O)Cc3ccccc3)c2N)cc1OC1CCCC1 (stereo not given)	inactive
COc1ccc(Nc2[nH]n(C3=Nc4ccccc4Sc4ccccc43)c(=O)c2C#N)cc1	inactive
CC1(C)N=C(N)N=C(N)N1c1cccc(OCCOc2cccc([N+](=O)[O-])c2)c1	inactive
CCOc1ccc(/C=N\N2CCCCCC2)cc1OCC	inactive
COc1ccccc1/C=C/C(=O)/C=C/c1ccccc1O	active
O=C(N/N=C/c1ccc(F)cc1)c1[nH]c2ccc(I)cc2c1-c1ccccc1	inactive
Oc1ccc(Cl)cc1CNc1nc2ccccc2[nH]1	inactive
COc1ccc(-n2ncc3c4nc(OC)c(S(=O)(=O)c5ccccc5)cc4ccc32)cc1	inactive
Cc1cc(Cl)c2c(Cl)ccc(Cl)c2n1	inactive
O=C1c2c(c3c4cc(Br)ccc4[nH]c3c3ccc4ccccc4c23)C(=O)N1O	inactive
O=C1C(Br)=C(c2ccccc2)C(=O)C(Br)=C1c1ccccc1	inactive
Cc1ccc(-c2nnc(COc3ccc(-c4nnc(N)s4)cc3)o2)cc1	inactive
Cn1c(=O)c2c(-c3ccccc3F)n(-c3ccc4c(c3)OCO4)cc2n(C)c1=O	inactive
O=c1nc(NO)[nH]c(=O)n1Cc1ccc(F)cc1	inactive
O=[N+]([O-])c1cc2c(cc1Br)C1C(C3C2C(Cl)(Cl)C(Cl)=C(Cl)C3(Cl)Cl)C(Cl)(Cl)C(Cl)=C(Cl)C1(Cl)Cl (stereo not given)	inactive
NC(=O)c1nc2c([nH]c1=O)CCCC2	inactive
Oc1ccc2ccccc2c1C1NN=C(c2ccccc2)S1 (stereo not given)	inactive
COC(=O)c1c2c(c(C)[n+]([O-])c1C)C(=O)C=C(NCc1cccc(OC)c1)C2=O	active
CCOC(=O)C1=C(C)N2C(=NC3=C(CCCC/C3=C\c3cc(OC)c(OC)c(OC)c3)C2c2cc(OC)c(OC)c(OC)c2)S1 (stereo not given)	inactive
COc1ccc(-c2nc3sccn3c2/C=C/C(=O)c2cc(OC)c(OC)c(OC)c2)cc1OC	active
NS(=O)(=O)c1cc(Br)c2c(c1)S(=O)(=O)NCN2	inactive
CCCCCCCC/C=C\CCCCCCCCOc1cccc(CC(=O)NCC[N+](C)(C)C)c1	inactive
Cc1ccc2c(N/N=C\c3ccco3)cc(C)nc2n1	inactive
COc1ccc(/C=C2\CN(Cc3cn(CCCNc4ccnc5cc(Cl)ccc45)nn3)C/C(=C\c3ccc(OC)c(OC)c3)C2=O)cc1OC	active
CCN(c1ccc(C(=O)N2CCN(c3ccccc3)CC2)cc1)S(C)(=O)=O	inactive
CCCN1CCN(c2ccc3nc(-c4ccc5nc(-c6ccc(C(F)(F)F)cc6)[nH]c5c4)[nH]c3c2)CC1	inactive
C[C@@H](Oc1cc(-c2cnn(C3CC4(CCCNC4)C3)c2)cnc1N)c1c(Cl)ccc(F)c1Cl (stereo not given in full)	inactive
O=C1c2ccccc2-c2nnc(-c3ccc(Br)cc3)cc21	inactive
COc1ccc2c(c1)c(=O)oc1c(C)c(OCC(C)=O)ccc12	inactive
COc1cccc(C2CC(=O)Nc3cc4c(cc32)CCC4)c1OC (stereo not given)	inactive
O=C(N/N=C(\CS(=O)(=O)c1ccccc1)c1cc2ccccc2oc1=O)c1ccccc1	inactive
CCCCC(=O)N/N=C/c1cc(I)cc(I)c1O	inactive
O=c1c2c(=NCCN3CCCC3)cc3c(=O)n(CCCN4CCOCC4)c(=O)c4c(-c5ccc(CN6CCCC6)cc5)cc(c(O)n1CCCN1CCOCC1)c2c4-3	active
COC(=O)c1c2c(c(C)[n+]([O-])c1C)C(=O)C=C(NCc1ccc(Cl)cc1)C2=O	active
Cc1cc(C)c(S(=O)O)c(C)c1	inactive
Cn1c2c(cc(S(=O)(=O)c3ccccc3)c1=O)CCc1c-2cnn1-c1ccccc1Cl	inactive
